B1: library; a variant is named by its letters at N, in order (parent)
chain: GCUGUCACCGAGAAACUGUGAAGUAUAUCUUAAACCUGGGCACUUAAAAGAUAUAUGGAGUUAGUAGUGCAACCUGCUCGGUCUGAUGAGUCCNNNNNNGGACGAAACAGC

- Variants of: B1
- experiment: normalized RNA/DNA level with ligand (relative to sTRSVctl = 100) (log10 (% of sTRSVctl)); HEK293T; ligand: cyclic di-GMP (c-di-GMP-II aptamer); ligand concentration (+) RNA-Seq: 1 mM; higher = less ribozyme self-cleavage, higher mRNA level
- stated conditions: reporter: mCherry (pCS4076), ligand present: yes
property measured: normalized RNA/DNA level with ligand (log10)

variant_designation=GUCGGA data_value=1.7
variant_designation=UCUAUA data_value=1.74
variant_designation=AAGAUC data_value=1.74
variant_designation=AUCGGC data_value=1.87
variant_designation=AGCGAU data_value=1.87
variant_designation=AUCUUC data_value=1.92
variant_designation=AUGACG data_value=1.76
variant_designation=GGGCAA data_value=1.8
variant_designation=CUGCUC data_value=1.83
variant_designation=AAAUUA data_value=1.75
variant_designation=GGCUUA data_value=1.79
variant_designation=AUAUAG data_value=1.74
variant_designation=AUGUGU data_value=1.77
variant_designation=AGACAC data_value=1.82
variant_designation=ACGCAC data_value=1.79
variant_designation=UUUACG data_value=1.91
variant_designation=GAAAGG data_value=1.72
variant_designation=CGUACG data_value=1.86
variant_designation=CGGGAA data_value=1.36
variant_designation=AAGUGC data_value=1.82
variant_designation=CGGUAC data_value=1.72
variant_designation=UGUGUU data_value=1.82
variant_designation=AACUAC data_value=1.84
variant_designation=GCUUGG data_value=1.8
variant_designation=GACCUA data_value=1.77
variant_designation=CUUUAU data_value=1.79
variant_designation=CGCUAA data_value=1.37
variant_designation=GAUCAA data_value=1.75
variant_designation=UGUUAA data_value=1.85
variant_designation=UUAGUA data_value=1.79
variant_designation=CUAGGG data_value=1.78
variant_designation=UACACU data_value=1.84
variant_designation=CUAGGA data_value=1.72
variant_designation=AUUUAA data_value=1.75
variant_designation=UAUUCC data_value=1.88
